Values compiled from patent US20120231006A1.

# key: entry, value: IC50 IL-2, whole blood Donor B
# Subject of test: human Orai1 (human, UniProt Q96D31 1-301)
# Sequence (Q96D31 whole entry): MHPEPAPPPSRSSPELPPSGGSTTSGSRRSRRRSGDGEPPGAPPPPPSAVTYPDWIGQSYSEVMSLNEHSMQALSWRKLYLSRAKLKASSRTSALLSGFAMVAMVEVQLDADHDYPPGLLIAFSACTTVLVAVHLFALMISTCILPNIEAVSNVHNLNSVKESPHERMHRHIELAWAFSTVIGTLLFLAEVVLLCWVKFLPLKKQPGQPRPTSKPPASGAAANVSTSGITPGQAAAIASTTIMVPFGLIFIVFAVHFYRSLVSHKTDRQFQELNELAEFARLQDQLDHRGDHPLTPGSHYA
# Assay: cell-based or functional assay
Answer with a number only, understood to be in nM.

// below: answered binders
# Binder, IC50 IL-2, whole blood Donor B, nM
rows = [
    ("mAb 5B5.2 (antibody, human IgG2, lambda, V domains shown, fully human IgG2 lambda, Campaign 2; same chains as 5B5.1) VH: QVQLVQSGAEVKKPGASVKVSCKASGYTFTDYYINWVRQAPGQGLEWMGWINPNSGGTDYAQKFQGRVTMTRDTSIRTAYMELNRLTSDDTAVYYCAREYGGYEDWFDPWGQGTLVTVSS VL: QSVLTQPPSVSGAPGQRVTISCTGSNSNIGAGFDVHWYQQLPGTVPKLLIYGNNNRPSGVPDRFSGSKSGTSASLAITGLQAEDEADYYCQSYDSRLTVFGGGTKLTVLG", 3.1),
    ("mAb 5F2.1 (antibody, human IgG2, lambda, V domains shown, fully human IgG2 lambda, Campaign 2) VH: QVQLVQSGAEVKKPGASVKVSCKASGYTFTDYYMNWVRQAPGQGLEWMGWINPNSGGTHYAQKFQGRVTMTRDTSISTAYMELSRLRSDDTAVYYCAREYGGYSDWFDPWGQGTLVTVSS VL: QSVLTQPPSVSGAPGQRVTISCTGSRSNIGAGYDVHWYQQLPRTAPKLLIYDNSNRPSGVPDRFSGSKSGSSASLAITGLQAEDEADYYCQSYDNSLSDSVLIGGGTKLTVLG", 3.79),
]

Item: mAb 5A4.2 (antibody, human IgG2, lambda, V domains shown, fully human IgG2 lambda, Campaign 2) VH: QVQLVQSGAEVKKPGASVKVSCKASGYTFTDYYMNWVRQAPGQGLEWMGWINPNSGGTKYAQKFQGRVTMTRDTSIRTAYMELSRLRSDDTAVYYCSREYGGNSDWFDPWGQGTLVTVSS VL: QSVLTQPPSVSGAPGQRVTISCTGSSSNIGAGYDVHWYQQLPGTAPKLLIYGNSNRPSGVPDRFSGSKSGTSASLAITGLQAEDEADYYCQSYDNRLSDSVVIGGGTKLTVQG | IC50 IL-2, whole blood Donor B: 1.21
